Source listed as patent US12291517B2.

- method_summary: Dog PK study, pH effect of free base vs. HCl salt
- Format: in vivo
- assay_setup: in vivo, po, 1 mg/kg, capsule, 10 mg (1 mpk), Penta
property: Tmax (h)
API: value field is a number in h; no unit string.

Quick one: Tmax of [2H]C([2H])([2H])NC(=O)c1nnc(NC(=O)C2CC2)cc1Nc1cccc(-c2ncn(C)n2)c1OC [Compound (I)] ?
2.5

----------
- method_summary: Dog PK study, pH effect of free base vs. HCl salt
- Format: in vivo
- assay_setup: in vivo, po, 1 mg/kg, capsule, 10 mg (1 mpk), Penta, read-out: AUC0-24 h Mean
property: AUC(0-t) (ng·h/mL)
Enter your answer as a number in ng·h/mL; do not include the unit.

# lookup: AUC(0-t) of [2H]C([2H])([2H])NC(=O)c1nnc(NC(=O)C2CC2)cc1Nc1cccc(-c2ncn(C)n2)c1OC [Compound (I)]
975

----------
- method_summary: Dog PK study, pH effect of free base vs. HCl salt
- Format: in vivo
- assay_setup: dog, in vivo, po, 1 mg/kg, dog, capsule, 10 mg (1 mpk), famotidine treated (Famo); read-out: AUC0-24 h Mean
property: AUC(0-t)

Look up AUC(0-t): Cl.[2H]C([2H])([2H])NC(=O)c1nnc(NC(=O)C2CC2)cc1Nc1cccc(-c2ncn(C)n2)c1OC [Form B of Compound (I)]
1340 ng·h/mL

For the compound shown here, `[2H]C([2H])([2H])NC(=O)c1nnc(NC(=O)C2CC2)cc1Nc1cccc(-c2ncn(C)n2)c1OC` , give the reported AUC(0-t).
586 ng·h/mL

----------
- method_summary: Dog PK study, pH effect of free base vs. HCl salt
- Type: in vivo
- assay_setup: dog, in vivo, po, 1 mg/kg, capsule, 10 mg (1 mpk), famotidine treated (Famo)
property: Tmax (h)
# output: bare number, implied unit h

Dear colleague, I am looking for the recorded Tmax of the following molecule: Cl.[2H]C([2H])([2H])NC(=O)c1nnc(NC(=O)C2CC2)cc1Nc1cccc(-c2ncn(C)n2)c1OC [Form B of Compound (I)]
2

Form field: reported Tmax of [2H]C([2H])([2H])NC(=O)c1nnc(NC(=O)C2CC2)cc1Nc1cccc(-c2ncn(C)n2)c1OC [Compound (I)]
3.5

----------
- method_summary: Dog PK study, pH effect of free base vs. HCl salt
- Assay type: in vivo
- assay_setup: in vivo, po, 1 mg/kg, capsule, 10 mg (1 mpk), Penta
property: Cmax (ng/mL)
Give just the numeric value; ng/mL need not be written.

If you can, please state the reported Cmax value of `[2H]C([2H])([2H])NC(=O)c1nnc(NC(=O)C2CC2)cc1Nc1cccc(-c2ncn(C)n2)c1OC` .
122
